B1: tRNA (parent)
chain: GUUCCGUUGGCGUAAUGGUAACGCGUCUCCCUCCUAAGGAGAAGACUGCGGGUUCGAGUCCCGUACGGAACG

Variants of: B1
Assay protocol: yeast fitness relative to wild type (ratio to wild type); higher = fitter; tRNA-Arg(CCU), competitive growth, 37 C, YPD
This sample holds only a part of the variants without activity.
Mark 0 (no) for yeast fitness values under 0.6, and 1 (yes) for everything at or above.

Consider the worked cases shown below.
| Seq | Category |
| --- | --- |
| GUUCCGUUGGCGUAAUCGUUACGCGUCUCCCUCCUAAGGAGAAGACUGCGGGUACGAGUCUCGUACGGAACG [G17C A20U U54A C61U] | 0 (no) |
| GGUUCGUUGGCGUAAUGGUAACGCGUCUCCCUCCUAAGGAGAAGACUGCGGCUUCGAGUCCCGUACGGAACG [U2G C4U G52C] | 0 (no) |
| GUUCCGUUGGCGUAAAGGUAACGCGUCUCCCGCCUAAGGAGAAGACUGCGGGUUGGAGUCCCGUACGGAACG [U16A U32G C55G] | 0 (no) |
| GUUCCGUUGGCGUAAUGAUAAGGCGUCUCCUUCCUAAGGAGAAGACUGCGGGUUCGAGUCCCGUACGGAACG [G18A C22G C31U] | 1 (yes) |
| GUUCCGUUGGCGUAAUGGUAACGCGUCUACCUCCUAAGGAGAAGACUGUGGGUUCGAGUCCCAUACGGAACG [C29A C49U G63A] | 0 (no) |
| GUUCCGUUGGCGUAAUGGUAACGUGUCUCCCUCCUAAGGAGAAGACUGCGGGUUGGAGUCCCGUACGGAACG [C24U C55G] | 1 (yes) |
| GUUUCGUUGGCGUAAUGGUAACGCGUCUCCCACCUAAGGAGAAGACUGCGGGUUCGAGUCCCGUACGGAACG [C4U U32A] | 1 (yes) |
| GUUCCGUUGGUGUAAUGGUACGGCGUCUCCCUCCUAAGGAGAAGACUGCGGGUCCGAGUCCAGUACGGAACG [C11U A21C C22G U54C C62A] | 0 (no) |

Item GUUCCGUUAGCGUAAUGGUAACGGGUCUCCCUCCUACGGAGAAGACUGCGGGUUCGAGUCCCGUACGGAUCG [G9A C24G A37C A70U] with yeast fitness of 0.6 or above?
0 (no)

Threshold query (yeast fitness >= 0.6) on GUUCCGUUGGCGUAAUGGUAACGAGUCUCCCUCCUAAGGAGCAGACUGCGGGUUCGAGUCCCGUACGGAACG [C24A A42C]
1 (yes)

Answer whether yeast fitness of GUUCCGUUGGCGUAAUGGUAACGCGUCUCUUUCCUAGGGAGAGGACUGCGGAUUCGAGUCCCGUACGGAACG [C30U C31U A37G A43G G52A] is greater than or equal to 0.6.
0 (no)
